Catalogue of compounds with associated IC50
target: human PCSK9 / human LDLR EGFa domain interaction (Homo sapiens (Human), UniProt Q8NBP7); experiment: TR-FRET assay of inhibition of the PCSK9-LDLR protein-protein interaction; assay type: binding; details: TR-FRET, 20 nM human PCSK9, 20 nM human LDLR EGFa domain, 2 hours room temperature; read-out: IC50
Sequence (Q8NBP7 153-692): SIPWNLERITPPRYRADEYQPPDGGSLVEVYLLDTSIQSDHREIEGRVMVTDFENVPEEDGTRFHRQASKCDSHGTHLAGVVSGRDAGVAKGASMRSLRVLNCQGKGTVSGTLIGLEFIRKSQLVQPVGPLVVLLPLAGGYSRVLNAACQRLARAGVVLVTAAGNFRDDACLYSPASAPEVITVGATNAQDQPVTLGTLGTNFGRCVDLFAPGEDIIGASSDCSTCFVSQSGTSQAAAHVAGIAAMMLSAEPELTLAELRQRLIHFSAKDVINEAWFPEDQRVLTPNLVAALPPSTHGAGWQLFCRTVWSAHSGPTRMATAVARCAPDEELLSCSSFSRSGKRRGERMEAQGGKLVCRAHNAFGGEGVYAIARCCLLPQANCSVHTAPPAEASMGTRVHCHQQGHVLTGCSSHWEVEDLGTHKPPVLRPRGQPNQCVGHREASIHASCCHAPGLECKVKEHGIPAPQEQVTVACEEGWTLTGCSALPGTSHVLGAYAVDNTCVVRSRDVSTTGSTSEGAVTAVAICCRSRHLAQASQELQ
Sequence (Q8NBP7 31-152 partner): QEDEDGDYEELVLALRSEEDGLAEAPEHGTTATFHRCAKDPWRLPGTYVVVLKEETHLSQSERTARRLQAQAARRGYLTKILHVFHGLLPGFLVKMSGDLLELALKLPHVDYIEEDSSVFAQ
Starred links: 1 amine or outer side, 2 acyl side, 3 side chain; linkers in the order of their positions; H or OH if unused. Positions of bridges follow the written chain, without caps; N, C: chain ends. Non-standard residues stand in square brackets, D forms with d. Residues, ends and D or L forms follow the SMILES beside them. Trp(5-F) = N[C@@H](Cc1c[nH]c2ccc(F)cc12)C(=O)O; 1Nal = N[C@@H](Cc1cccc2ccccc12)C(=O)O; mXylylene = c1cc(C[*:1])cc(C[*:2])c1; Mpa = O=C(O)CCS
metric.name: IC50

>  <compound>
COc1ccc(C[C@@H]2NC(=O)[C@@H]3CCCCC(=O)N[C@H]4C[C@@H](C(=O)N3)N(C4)C(=O)[C@H](Cc3c[nH]c4ccc(F)cc34)NC(=O)[C@H](Cc3c[nH]c4ccc(F)cc34)NC(=O)[C@@H](C)NC(=O)[C@H](CCCN)NC(=O)CCSCc3cccc(c3)CCSCNC(=O)[C@]3(C)CCCN3C2=O)cc1 [Compound 521]

>  <metric.name>
IC50

>  <reported.value>
0.1 to 100 nM

$$$$
>  <compound>
NCCCC[C@@H]1NC(=O)CCSCc2cccc(c2)CSC[C@@H](C(N)=O)NC(=O)[C@@H]2CCCN2C(=O)[C@H](Cc2ccc(O)cc2)NC(=O)[C@H](Cc2c[nH]cn2)NC(=O)[C@H](CC(=O)O)NC(=O)[C@H](Cc2c[nH]c3ccc(F)cc23)NC(=O)[C@H](Cc2cccc3ccccc23)NC(=O)CNC1=O [Compound 209] ([Mpa]KG[1Nal][Trp(5-F)]DHYPC-NH2; linker 1-10 via mXylylene)

>  <metric.name>
IC50

>  <reported.value>
1000 to 12100 nM

$$$$
